For each record, write down the corresponding protein stability index.
B1: VTI1B (parent)
chain: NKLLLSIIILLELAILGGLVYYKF

# Variants of: B1
# ASSAY TEXT: protein stability index of a GFP-peptide fusion (GPS, HEK-293T) (PSI 1-6); higher = more stable;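 further: lentivirally expressed fusions sorted by FACS into six bins by GFP to DsRed ratio, PSI derived from sequencing read proportions per bin multiplied by bin number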
# APPLIED CONDITIONS: c terminus: a fixed tail appended
Answers are plain numbers.

mutation=Y21A result_type="protein stability index" observed_result=1.46
mutation=I15H result_type="protein stability index" observed_result=2.83
mutation=I7Q result_type="protein stability index" observed_result=2.44
mutation=L19S result_type="protein stability index" observed_result=3.48
mutation=A14I result_type="protein stability index" observed_result=1.84

// for each variant in input: emit protein stability index
1. I7L
2. E12M
3. Y21C

1. 3.54
2. 2.4
3. 3.01
